Assay: chemical genetic growth profiling, strain panel (AID 1159580);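 further: tested at 20 µM; growth read once vehicle control cultures reached saturation at 30 °C; lower values mean less growth of the strain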
Details: S. cerevisiae deletion strains, growth OD, locus YNL322C, strain KRE1 (second series)
The whole screen tested about 5,500 compounds, of which about 2,000 (36%) were called active. Roughly 18% stayed inconclusive and do not appear here. No stated cut-off is given here; in the data, active means normalized growth mostly below about 0.91 (no sharp cut-off); inconclusive means no clear call, values can overlap the other calls; inactive means mostly above about 0.92. This is one part of the list.
Allowed answers: active, inactive

CC(=O)N[C@@H](CC(=O)O)C(=O)O: inactive
COc1ccc2c(=O)c(CC(=O)O)coc2c1: inactive

So what was the verdict on CC(C)CCCC(C)[C@H]1CCC2C3CC[C@H]4CC(=O)CC[C@]4(C)C3CC[C@@]21C (some centres undefined) in this test?
inactive

// outcome(item) with item = C[C@]12CCC3C(CC[C@H]4CC(=O)CC[C@]34C)C1CCC2=O (some centres undefined)
inactive
